- MEASUREMENT TARGET: IRAK-4 enzyme (Homo sapiens, UniProt Q9NWZ3)
- Construct: purchased Millipore, USA
- Sequence (Q9NWZ3 1-460): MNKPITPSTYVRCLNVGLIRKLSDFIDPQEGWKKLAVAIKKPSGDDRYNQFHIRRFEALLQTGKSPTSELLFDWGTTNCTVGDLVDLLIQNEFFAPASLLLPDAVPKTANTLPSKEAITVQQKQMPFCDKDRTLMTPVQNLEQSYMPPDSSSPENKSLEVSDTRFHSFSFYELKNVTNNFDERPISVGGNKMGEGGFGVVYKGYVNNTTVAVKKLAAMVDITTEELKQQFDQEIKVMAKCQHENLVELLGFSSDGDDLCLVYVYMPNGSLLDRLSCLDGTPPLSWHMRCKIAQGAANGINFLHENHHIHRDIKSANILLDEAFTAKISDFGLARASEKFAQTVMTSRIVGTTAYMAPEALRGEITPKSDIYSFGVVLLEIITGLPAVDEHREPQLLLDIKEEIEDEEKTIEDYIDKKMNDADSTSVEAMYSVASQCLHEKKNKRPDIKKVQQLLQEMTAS
- PROTOCOL NOTES: IRAK-4 Biochemical Assay (TR-FRET)
- RECORDED CONDITIONS: 1 μM compound, recombinant IRAK-4 kinase, 20 μM ATP
Where a name gives a salt, the structure may show the parent alone.
VALUE TYPE: inhibition at 1 µM (%)
Express the result in % but write the number alone.

Tested on IRAK-4 enzyme (Homo sapiens, UniProt Q9NWZ3): Cc1cc(-c2nc(C(=O)Nc3cc4cnn(CCN5CCN(C)CC5)c4cc3N3CCC(O)CC3)co2)ccn1 . Observed inhibition at 1 µM: 96

Tested on IRAK-4 enzyme (Homo sapiens, UniProt Q9NWZ3): Cn1cc2cc(NC(=O)c3ccc(N4CCC(O)C4)cn3)c(N3CCCCC3)cc2n1 (centres unmarked) . Observed inhibition at 1 µM: 51

Tested on IRAK-4 enzyme (Homo sapiens, UniProt Q9NWZ3): COCCn1nc(C)c2cc(NC(=O)c3coc(-c4ccnc(N)c4)n3)c(N3CCC(O)CC3)cc21 . Observed inhibition at 1 µM: 99

Tested on IRAK-4 enzyme (Homo sapiens, UniProt Q9NWZ3): Cn1cc2cc(NC(=O)c3cccc(N4CC[C@@H](OC(=O)CN)C4)n3)c(N3CCCCC3)cc2n1 [Example 58, 2,2,2-trifluoroacetate] . Observed inhibition at 1 µM: 96

Tested on IRAK-4 enzyme (Homo sapiens, UniProt Q9NWZ3): Cc1nn(C)c2cc3c(cc12)NC(=O)c1coc(n1)-c1ccnc(c1)NCCCOCC1CCN3CC1 . Observed inhibition at 1 µM: 72

Tested on IRAK-4 enzyme (Homo sapiens, UniProt Q9NWZ3): Cn1cc2cc(NC(=O)c3ccnc(N4CCC(O)C4)n3)c(N3CCCCC3)cc2n1 (centres unmarked) . Observed inhibition at 1 µM: 96

Tested on IRAK-4 enzyme (Homo sapiens, UniProt Q9NWZ3): CN1CCC(n2cc3cc(NC(=O)c4cccc(N5CCC(O)C5)n4)c(C4CC4)cc3n2)CC1 (centres unmarked) [Example 56, hydrochloride] . Observed inhibition at 1 µM: 71

Tested on IRAK-4 enzyme (Homo sapiens, UniProt Q9NWZ3): Cn1cc2cc(NC(=O)c3cc(-c4ccc(N)nc4)ccn3)c(N3CCCCC3)cc2n1 [Example 53, hydrochloride] . Observed inhibition at 1 µM: 13

---

- MEASUREMENT TARGET: IRAK-4 enzyme (Homo sapiens)
- Construct: purchased Millipore, USA
- PROTOCOL NOTES: IRAK-4 Biochemical Assay (TR-FRET)
- RECORDED CONDITIONS: 1 μM compound, recombinant IRAK-4 kinase, 20 μM ATP
Counter-ions that a name gives are not always drawn.
Record form. Attribute: inhibition at 1 µM. Fill in for each entry.
Express the result in % but write the number alone.

Value of inhibition at 1 µM reported for the compound O=C(Nc1cc2cn(C3CCNCC3)nc2cc1C1CC1)c1cccc(N2CCC(O)C2)n1 (centres unmarked) [Example 54, hydrochloride] is 96

Value of inhibition at 1 µM reported for the compound C[C@H](O)Cn1cc(-c2cccc(C(=O)Nc3cc4cn(C)nc4nc3N3CCCCC3)n2)cn1 is 96

Value of inhibition at 1 µM reported for the compound Cn1cc2cc(NC(=O)c3cccc(-c4ccc(N)nc4)n3)c(C3CC3)cc2n1 is 98

Value of inhibition at 1 µM reported for the compound Cc1cc(-c2nc(C(=O)Nc3cc4c(C)n(C)nc4nc3N3CCCCC3)co2)ccn1 is 97

Value of inhibition at 1 µM reported for the compound Cn1cc2cc(NC(=O)c3cccc(-c4ccnc(N)c4)n3)c(C3CC3)cc2n1 is 96

Value of inhibition at 1 µM reported for the compound O=C(Nc1cc2cn(CCN3CCOCC3)nc2cc1C1CC1)c1cccc(N2CCC(O)C2)n1 (centres unmarked) is 95

Value of inhibition at 1 µM reported for the compound Cc1c2cc(NC(=O)c3coc(-c4ccnc(N)c4)n3)c(N3CCCCC3)nc2nn1C is 98

Value of inhibition at 1 µM reported for the compound Cc1cc(-c2nc(C(=O)Nc3cc4cn(C)nc4nc3N3CC[C@H](O)C3)co2)ccn1 is 89

Value of inhibition at 1 µM reported for the compound Cn1cc2cc(NC(=O)c3cccc(N4CC[C@H](N)C4)n3)c(N3CCCCC3)nc2n1 is 78

Value of inhibition at 1 µM reported for the compound Cn1cc2cc(NC(=O)c3cccc(-c4cccc(N)n4)n3)c(N3CCCCC3)cc2n1 is 96

Value of inhibition at 1 µM reported for the compound Cc1cc(-c2nc(C(=O)Nc3cc4cnn(CCN5CCOCC5)c4cc3N3CCC(O)CC3)co2)ccn1 is 100

Value of inhibition at 1 µM reported for the compound C=CCOCC1CCN(c2cc3c(cc2NC(=O)c2coc(-c4cccc(N)n4)n2)c(C)nn3C)CC1 is 46

Value of inhibition at 1 µM reported for the compound Cc1ccc(C(=O)Nc2cc3cn(C)nc3cc2N2CCCCC2)nc1N1CCC(O)C1 (centres unmarked) is 91

Value of inhibition at 1 µM reported for the compound Cn1cc2cc(NC(=O)c3cc(N4CCC(O)C4)ccn3)c(N3CCCCC3)cc2n1 (centres unmarked) is 9

Value of inhibition at 1 µM reported for the compound Cc1cnccc1-c1nc(C(=O)Nc2cc3cn(C)nc3nc2N2CC[C@H](O)C2)co1 is 72

Value of inhibition at 1 µM reported for the compound Cn1cc2cc(NC(=O)c3cncc(N4CCC(O)C4)n3)c(N3CCCCC3)cc2n1 (centres unmarked) is 98

Value of inhibition at 1 µM reported for the compound Cc1cc(-c2nc(C(=O)Nc3cc4cnn(C)c4nc3N3CCCCC3)co2)ccn1 is 99

---

- MEASUREMENT TARGET: IRAK-4 enzyme (Homo sapiens)
- Construct: purchased Millipore, USA
- PROTOCOL NOTES: IRAK-4 Biochemical Assay (TR-FRET)
- RECORDED CONDITIONS: 1 μM compound, recombinant IRAK-4 kinase, 20 μM ATP
Counter-ions that a name gives are not always drawn.
Record form. Attribute: inhibition at 1 µM. Fill in for each entry.
Express the result in % but write the number alone.

Value of inhibition at 1 µM reported for the molecule COCCn1ncc2cc(NC(=O)c3coc(-c4ccnc(C)c4)n3)c(N3CCC(O)CC3)nc21 is 97

Value of inhibition at 1 µM reported for the molecule Cc1nn(C)c2cc(N3CCC(CO)CC3)c(NC(=O)c3cccc(-c4ccc(N)nc4)n3)cc12 [Example 37, hydrochloride] is 75

Value of inhibition at 1 µM reported for the molecule COCCCn1ncc2cc(NC(=O)c3coc(-c4ccnc(C)c4)n3)c(N3CCC(O)CC3)cc21 [Example 4, hydrochloride] is 99

Value of inhibition at 1 µM reported for the molecule Cn1cc2cc(NC(=O)c3ccc(N4CCC(O)C4)cn3)c(N3CCCCC3)nc2n1 (stereo not shown) is 57

Value of inhibition at 1 µM reported for the molecule Cn1cc2cc(NC(=O)c3ccnc(N4CCC(O)C4)n3)c(C3CC3)cc2n1 (stereo not shown) is 86

Value of inhibition at 1 µM reported for the molecule COCCn1nc(C)c2cc(NC(=O)c3coc(-c4ccnc(N)c4)n3)c(N3CCC(CO)CC3)cc21 [Example 10, hydrochloride] is 99

Value of inhibition at 1 µM reported for the molecule Cc1cc(-c2nc(C(=O)Nc3cc4c(C)nn(C)c4nc3N3CCC(CO)CC3)co2)ccn1 is 97

---

Record form. Attribute: inhibition at 0.1 µM. Fill in for each entry.
- MEASUREMENT TARGET: IRAK-4 enzyme (Homo sapiens, UniProt Q9NWZ3)
- Construct: purchased Millipore, USA
- PROTOCOL NOTES: IRAK-4 Biochemical Assay (TR-FRET)
- RECORDED CONDITIONS: 0.1 μM compound, recombinant IRAK-4 kinase, 20 μM ATP
Counter-ions that a name gives are not always drawn.
Express the result in % but write the number alone.

Value of inhibition at 0.1 µM reported for the compound Cn1ncc2cc(NC(=O)c3cccc(N4CCC(O)C4)n3)c(N3CCCCC3)cc21 (centres unmarked) is 43

Value of inhibition at 0.1 µM reported for the compound COCCn1cc2cc(NC(=O)c3cccc(N4CCC(O)C4)n3)c(N3CCCCC3)cc2n1 (centres unmarked) is 94

Value of inhibition at 0.1 µM reported for the compound Cc1nn(C)c2nc(N3CCC(CO)CC3)c(NC(=O)c3coc(-c4ccnc(N)c4)n3)cc12 is 97

Value of inhibition at 0.1 µM reported for the compound Cn1cc2cc(NC(=O)c3cccc(-c4ccnc(N)c4)n3)c(N3CCCCC3)cc2n1 [Example 43, hydrochloride] is 97

Value of inhibition at 0.1 µM reported for the compound Cn1cc2cc(NC(=O)c3cccc(N4CC[C@H](N)C4)n3)c(N3CCCCC3)nc2n1 is 34

Value of inhibition at 0.1 µM reported for the compound Cn1ncc2cc(NC(=O)c3coc(-c4cccnc4N)n3)c(N3CCC(O)CC3)cc21 [Example 1, hydrochloride] is 96

Value of inhibition at 0.1 µM reported for the compound Cn1cc2cc(NC(=O)c3cccc(N4CC[C@H](O)C4)n3)c(N3CCCCC3)nc2n1 is 57

Value of inhibition at 0.1 µM reported for the compound Cn1cc2cc(NC(=O)c3cccc(-c4ccc(N)nc4)n3)c(N3CCCCC3)cc2n1 is 98
